Value source: paper PMC11077049

Target: RRM tandem Y19A (human, UniProt Q07955 1-196, Y19A)
Sequence (Q07955 1-196 Y19A): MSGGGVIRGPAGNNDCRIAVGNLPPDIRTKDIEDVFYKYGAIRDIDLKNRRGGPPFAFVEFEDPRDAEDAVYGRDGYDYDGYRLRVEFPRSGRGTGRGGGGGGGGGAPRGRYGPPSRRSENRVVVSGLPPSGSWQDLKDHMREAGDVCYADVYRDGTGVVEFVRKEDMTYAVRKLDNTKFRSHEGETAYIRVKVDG
Assay: FP; FP, 10 nM RNA, 37 C 30 min then 25 C 10 min; 21-mers: 25 mM KCl, 0.25 M Arg/Glu, 20 mM Tris-HCl pH 7.5, 0.1 mM EDTA, 0.1 mM TCEP, 0.02% Tween 20; 8-mers: 35 mM
Details: protein: recombinant; tags: SUMO; label: 5' fluorescein; G-quadruplex (parallel)
pKd: −log10 of the molar value.
observation.type: pKd

| binder | numeric.readout |
| --- | --- |
| GGGGGCUGGGCGGGGACCGGG (structured_RNA) [ARPC2 GQ] | 5.74 |
